# ASSAY PROCEDURE: BET inhibitor-based combinations targeting novel dependencies in MECOM-rearranged (r) AML: HNT-34 cell line (AID 2202234); also: nearly all actives have a fitted effect of over 35% in size
# MEASUREMENT SETUP: HNT-34 AML viability, CellTiter-Glo luminescence, 48 h; series mostly up to 46 µM
Results filed as inconclusive are left out. The source made the active and inactive calls. Calls follow the shape of the dose curve; as a rule, active = well fitted inhibition curve with a large enough effect; inconclusive = small, poorly fitted or top-dose-only effect; inactive = no such curve, though single readings can be large or run the other way.
Outcome codes: active, inactive

{"columns": ["MOLECULE", "CLASS ASSIGNMENT"],
 "data": [
  ["Nc1ncnc(Nc2ccc(OCc3ccccc3)c(Cl)c2)c1/C=N/OCCN1CCOCC1", "active"],
  ["O=C(Nc1cnn2ccc(N3CCC[C@@H]3c3cc(F)ccc3F)nc12)N1CC[C@H](O)C1", "inactive"],
  ["C[C@H](CCC(=O)O)[C@H]1CC[C@H]2[C@@H]3[C@@H](O)C[C@@H]4C[C@H](O)CC[C@]4(C)[C@H]3CC[C@]12C", "inactive"],
  ["O=C(/C=C/c1ccc2ccc(C(F)(F)F)cc2n1)c1ccncc1", "active"],
  ["NC[C@@](O)(c1ccc(Cl)cc1)c1ccc(-c2cn[nH]c2)cc1", "active"],
  ["CC(C)(O)CS(=O)(=O)Nc1ccc2c(c1)CCN(C(=O)COc1cccnc1)C2", "active"],
  ["CN[C@@H]1[C@@H](O)[C@@H](O[C@@H]2[C@@H](O)[C@H](O[C@H]3O[C@H](CN)[C@@H](O)[C@H](O)[C@H]3O)[C@@H](N)C[C@H]2NC(=O)C(O)CN)OC[C@]1(C)O (stereo partly drawn)", "inactive"],
  ["Cc1cnc(NC(=O)Nc2cc(Br)c(C)cc2OC[C@@H]2CNCCO2)cn1", "active"]
]}
